Test system: C. albicans NCPF 3179
Assay Text: Microstatic activity, MIC in tryptone soy broth
Type: cell-based
Condition Set: Candida albicans, NCPF3179, 120 h, 25° C., 5 days, upper limit of MIC range, read-out: MIC value (ppm of diol), to
Measured Property: MIC

Using the record for `OCC1(CO)CCCCCCC1` , report its MIC. ≤ 12.5 mg/mL

Using the record for `CCC(C)(CO)CO` , report its MIC. ≤ 100 mg/mL

Using the record for `CCCCCCCCC(C)(CO)CO` , report its MIC. ≤ 3.12 mg/mL

Using the record for `OCC1(CO)CC/C=C\CCC1` , report its MIC. ≤ 25 mg/mL

Using the record for `CC(CO)(CO)c1ccccc1` , report its MIC. ≤ 100 mg/mL

====

Recorded measurements of MIC, one per entry
Tested on: C. albicans NCPF 3179
Assay Text: Microstatic activity, MIC in tryptone soy broth
Type: cell-based
Condition Set: Candida albicans, NCPF3179, 120 h, 25° C., 5 days, lower limit of MIC range, read-out: MIC value (ppm of diol), from

As a guide, the following entries are already answered.
# Molecule, MIC
rows = [
    ("OCC1(CO)CC/C=C\\CCC1", "> 12.5 mg/mL"),
    ("OCC1(CO)CCCCCCC1", "> 6.25 mg/mL"),
    ("CC(O)CC(C)O (stereo not drawn) [2,4-Pentanediol, 2,4-pentanediol, reference compound]", "> 50 mg/mL"),
    ("CCCCC(CC)(CO)CO", "> 25 mg/mL"),
    ("CC(C)C(C)(CO)CO", "> 25 mg/mL"),
    ("CC(C)CCC(CO)(CO)C(C)C", "> 25 mg/mL"),
]

Using the record for `CCC(C)(CO)CO` , report its MIC. > 50 mg/mL

Using the record for CCCC(O)CO (stereo not drawn) [1,2-Pentanediol, 1,2-pentanediol, reference compound] , report its MIC. > 25 mg/mL

Using the record for `OCC1(CO)CCCC1` , report its MIC. > 25 mg/mL

====

Recorded measurements of MIC, one per entry
Test system: S. aureus NCIMB 9578
Assay Text: Microstatic activity, MIC in tryptone soy broth
Assay type: cell-based
Condition Set: Staphylococcus aureus, NCIMB9578, 30° C., 48 hours, lower limit of MIC range, read-out: MIC value (ppm of diol), from

# Molecule, Assay System, MIC
measured = [
    ("OCC1(CO)CC/C=C\\CCC1", "S. aureus NCIMB 9578", "> 6250 µg/mL"),
]

Using the record for `CCCCC(CC)(CO)CO` , report its MIC. > 12500 µg/mL

Using the record for OCC1(CO)CC2CCC1C2 (centres unmarked) , report its MIC. > 12500 µg/mL

Using the record for `OCC1(CO)CCCC1` , report its MIC. > 3120 µg/mL

Using the record for `OCC1(CO)CCCCCCC1` , report its MIC. > 6250 µg/mL

====

Test system: P. vulgaris NCIMB 4175
Assay Text: Microstatic activity, MIC in tryptone soy broth
Assay type: cell-based
Condition Set: Proteus vulgaris, NCIMB4175, 30° C., 48 hours, upper limit of MIC range, read-out: MIC value (ppm of diol), to
Recorded measurements of MIC, one per entry

What reported MIC corresponds to CC(C)C(C)(CO)CO [IMPD, 2-isopropyl-2-methylpropane-1,3-diol] on P. vulgaris NCIMB 4175? ≤ 12500 µg/mL

What reported MIC corresponds to CC(CO)(CO)c1ccccc1 [MPPD, 2-methyl-2-phenylpropane-1,3-diol] on P. vulgaris NCIMB 4175? ≤ 6250 µg/mL

What reported MIC corresponds to CCCCCC(CO)(CO)CCC [PPPD, 2-pentyl-2-propylpropane-1,3-diol] on P. vulgaris NCIMB 4175? ≤ 50000 µg/mL

What reported MIC corresponds to OCC1(CO)CC/C=C\CCC1 [DMCOE, 1,1-dimethylolcyclooct-4-ene] on P. vulgaris NCIMB 4175? ≤ 6250 µg/mL

Hello, the source for this data is patent US20120152149A1, in case you need it.
